test system: BDF1 mice, Lewis lung carcinoma iv, survival T/C; assay: NCI In Vivo Anticancer Drug Screen. Data for tumor model Lewis Lung Carcinoma (intravenous) in B6D2F1 (BDF1) mice; settings: endpoint: median survival time; dose: 200.0 mg/kg/injection; schedule: Q01DX009 (ip); vehicle: saline with Tween-80; higher = longer survival
Inconclusive results and toxic doses are left out.
Recorded metric: T/C

[in] Bench note: what T/C did `COc1cc2ccnc(C=O)c2cc1OC` show?
[out] 108 % of control

[in] Please give the measured T/C for this compound: `COc1cc(Cl)ccc1C`
[out] 102 % of control

[in] Give its T/C value. Item: `O=C(N/N=C\c1cc(Br)cc(Br)c1O)N/N=C/c1cc(Br)cc(Br)c1O`
[out] 98 % of control

[in] Which T/C is listed for `C[C@]12CC[C@@H]3c4ccc(OC(=O)Cc5ccc(N(CCCl)CCCl)cc5)cc4CC[C@H]3[C@@H]1CC[C@@H]2OC(=O)Cc1ccc(N(CCCl)CCCl)cc1` ?
[out] 98 % of control

[in] May I ask what T/C has been recorded for CC(Oc1ccccc1-c1ccccc1)C(=O)N(C)C (stereo unspecified) ?
[out] 113 % of control

[in] Could you share which T/C value was measured for `COc1cc2ccnc(/C=N\NC(N)=S)c2cc1OC` ?
[out] 103 % of control

[in] GET /values?readout=T/C&item= CCCCCCCCCCCCCCCCCCCCCC(=O)Nc1ccn(C2OC(CO)C(O)C2O)c(=O)n1 (stereo unspecified)
[out] 120 % of control

[in] Using the record for `Clc1ccc2nnnn2n1` , report its T/C.
[out] 108 % of control

[in] # T/C lookup, item O=C1OC(c2ccc(O)cc2)(c2ccc(Oc3ccccc3)cc2)c2ccccc21 (stereo unspecified)
[out] 112 % of control

[in] Reported T/C for O=c1[nH]c(=O)n(C2CC(O)C(CO)O2)cc1I (stereo unspecified) : what is it?
[out] 108 % of control

[in] So what's the measured T/C for this one? `CCOC(=O)NC(N)=O`
[out] 122 % of control

###

Listed next: entries and their corresponding T/C.
test system: BDF1 mice, Lewis lung carcinoma iv, survival T/C; assay: NCI In Vivo Anticancer Drug Screen. Data for tumor model Lewis Lung Carcinoma (intravenous) in B6D2F1 (BDF1) mice; details: endpoint: median survival time; dose: 100.0 mg/kg/injection; schedule: Q01DX009 (ip); vehicle: water; higher = longer survival
Inconclusive results and toxic doses are left out.

CC/C(=C(/CC)c1ccc(O)cc1)c1ccc(O)cc1	106 % of control
COCC(O)Cn1ccnc1[N+](=O)[O-] (centres undefined)	100 % of control
O=C(NO)c1cc(O)c(O)c(O)c1	97 % of control
C/C=C/C1=CC(=O)C(O)C1O (centres undefined)	101 % of control
CC(=O)NC(C=O)OCC=O (centres undefined)	106 % of control
O=C(NO)c1ccc(O)c(O)c1	100 % of control
Nc1ncnc2c1ncn2C1OC(COP(=O)(O)O)C(O)C1O (centres undefined)	103 % of control
Nc1nc2c(ncn2C2OC(CO)C(O)C2O)c(=O)[nH]1.Nc1nc2c(ncn2C2OC(CO)C(O)C2O)c(=O)[nH]1.[NH2-].[NH2-].[Pt+2] (centres undefined)	113 % of control

Kindly consider the entry below.
[in] Item NC(=O)c1csc(C2OC(CO)C(O)C2O)n1 (centres undefined) has what recorded T/C?
[out] 326 % of control

###

Parameter: T/C. Scope: all listed entries.
tested on: BDF1 mice, Lewis lung carcinoma iv, survival T/C; experiment: NCI In Vivo Anticancer Drug Screen. Data for tumor model Lewis Lung Carcinoma (intravenous) in B6D2F1 (BDF1) mice; conditions: endpoint: median survival time; dose: 6.25 mg/kg/injection; schedule: Q01DX009 (ip); vehicle: Klucel (hydroxypropylcellulose) (HPC); higher = longer survival
Inconclusive results and toxic doses are left out.

[N-]=[N+]=C1N=CN=C1c1ncn[nH]1	100 % of control

[in] Which T/C value is on record for `O=C(Nc1ccc(Cl)c(Cl)c1)Nc1c(Oc2ccc(Cl)c(Cl)c2)ccc(Cl)c1S(=O)(=O)O` ?
[out] 104 % of control

[in] Any idea what its T/C is? The compound is C1CCC2[N-]CC3CCCCC3[N-]CC3CCCCC3[N-]CC3CCCCC3[N-]CC2C1.[Cu] (stereo not drawn)
[out] 113 % of control

###

# key: entry, value: T/C
tested on: BDF1 mice, Lewis lung carcinoma iv, survival T/C; experiment: NCI In Vivo Anticancer Drug Screen. Data for tumor model Lewis Lung Carcinoma (intravenous) in B6D2F1 (BDF1) mice; conditions: endpoint: median survival time; dose: 200.0 mg/kg/injection; schedule: Q01DX009 (ip); vehicle: Klucel (hydroxypropylcellulose) (HPC); higher = longer survival
Toxic doses and inconclusive results are not listed. Peptide text beside a SMILES is read from it. * marks the point of attachment. Trt = c1ccc(C(c2ccccc2)(c2ccccc2)*)cc1; Cbz = O=C(OCc1ccccc1)*; Bn = c1ccc(C*)cc1; βAla = NCCC(=O)O

CN(C1=NS(=O)(=O)N=C(N(C)c2ccccc2)O1)c1ccccc1	117 % of control
CCCCCC[C@H]([C@H](C)O)n1cnc2c(N)ncnc21	99 % of control
Cc1ccc(NCC2(/N=C/c3ccccc3)OC(CO)C(O)C2O)cc1 (stereo not drawn)	96 % of control
OC(CBr)C(O)C(O)C(O)CBr (stereo not drawn)	103 % of control
Clc1ccc(C2SC=Cc3ccccc32)cc1 (stereo not drawn)	115 % of control
CCC1OCC(C(Cl)CCl)O1 (stereo not drawn)	97 % of control
COc1cc(C)c(C2NC(=O)c3ccccc3N2)cc1C (stereo not drawn)	97 % of control
COc1ccc(CCNC(C)=O)cc1OC	105 % of control

[in] Enter reported T/C observed with BDF1 mice, Lewis lung carcinoma iv, survival T/C for CC(=O)OCC1OC(n2ncc(=O)[nH]c2=O)C(OC(C)=O)C1OC(C)=O (stereo not drawn)
[out] 109 % of control

[in] Form entry - test system: BDF1 mice, Lewis lung carcinoma iv, survival T/C; read-out: T/C; compound: COC(=O)C(CSC(c1ccccc1)(c1ccccc1)c1ccccc1)NC(=O)C(CSCc1ccccc1)NC(=O)CCNC(=O)OCc1ccccc1 (stereo not drawn) ({Cbz-βAla}-Cys(Bn)-Cys(Trt)-OMe; configuration not given here)
[out] 97 % of control

[in] Request body: readout T/C, system BDF1 mice, Lewis lung carcinoma iv, survival T/C, query Cc1cc(O)c(C(C)C)cc1S(=O)(=O)O (tested in a mixture with another compound) . Return the value.
[out] 102 % of control

[in] State its T/C on BDF1 mice, Lewis lung carcinoma iv, survival T/C: `O=Cc1ccc(C=O)c(Cl)c1`
[out] 105 % of control

[in] Please tell me: T/C of `COc1cc(OC)c(OC)cc1/C=C\c1ccnc2ccccc12` , system BDF1 mice, Lewis lung carcinoma iv, survival T/C?
[out] 107 % of control

###

system: BDF1 mice, Lewis lung carcinoma iv, survival T/C; assay: NCI In Vivo Anticancer Drug Screen. Data for tumor model Lewis Lung Carcinoma (intravenous) in B6D2F1 (BDF1) mice; settings: endpoint: median survival time; dose: 200.0 mg/kg/injection; schedule: Q01DX009 (ip); vehicle: saline with Tween-80; higher = longer survival
Toxic doses and inconclusive results are not listed.
compounds and their reported T/C

O=CN(SSN(C=O)C1CCCCC1)C1CCCCC1	101 % of control
Nc1ncnc2c1cnn2Cc1ccc(Cl)cc1	109 % of control
CCOC(C)C(/C=N/NC(N)=S)=NNC(N)=S (configuration not stated)	114 % of control

[in] Need T/C, item `Cc1ccc(S(=O)(=O)NC(=O)OC23COCN2COC3)cc1`
[out] 98 % of control

###

Tested on: BDF1 mice, Lewis lung carcinoma iv, survival T/C
Assay: NCI In Vivo Anticancer Drug Screen. Data for tumor model Lewis Lung Carcinoma (intravenous) in B6D2F1 (BDF1) mice
Settings: endpoint: median survival time; dose: 3.0 mg/kg/injection; schedule: Q01DX009 (ip); vehicle: saline; higher = longer survival
Protocol: The antitumor activity of compounds was measured in mice bearing transplantable tumors. Survival or tumor size were measured and the results are expressed as the measurement made in the treated group (T) divided by the measurement made in the vehicle treated control group (C). The tumor model used in this assay is Lewis Lung Carcinoma (intravenous) in B6D2F1 (BDF1) mice
Toxic doses and inconclusive results are not listed.
Quick reference: T/C of the listed items.

Here is how some compounds turned out for T/C.
O=C(NCCN1CC1)C(=O)NCCN1CC1	101 % of control
O=S(=O)(O)O.[W]	119 % of control

[in] Give the measured T/C of `O=C(NCCCN1CC1)C(=O)NCCCN1CC1` .
[out] 120 % of control

[in] # T/C lookup, item `ClCC[Se](Cl)(Cl)c1ccccc1`
[out] 114 % of control

[in] So what's the measured T/C for this one? COc1cccc2c1C(=O)c1c(O)c3c(c(O)c1C2=O)C[C@@](O)(/C(C)=N\NC(=O)CO)C[C@@H]3OC1CC(N)C(O)C(C)O1 (stereo partly drawn)
[out] 115 % of control

[in] Find the recorded T/C belonging to `O=C(NCCCCCCCCCCNC(=O)N1CC1)N1CC1` and report it.
[out] 122 % of control

[in] Which T/C is reported for this compound? `[Cl][Pt+2][Cl].[NH-]CC1(C[NH-])CCCCC1`
[out] 96 % of control

[in] I am curious: what T/C value has been reported for `O=C(CCN1CC1)OCCOC(=O)CCN1CC1` ?
[out] 107 % of control
